# Test system: Escherichia coli TOP10
# PROCEDURE TEXT: shrunken log2 fold change of peptide-encoding DNA abundance (4.5 h post-induction vs induction); higher = less antimicrobial activity (less host growth inhibition)
# CONDITION LABEL: time post-induction: 4.5 h; library: site-saturation at positions 5, 18, 19, 20
Assign class by shrunken log2 fold change: not lower than 0.02 means YES; lower than 0.02 means NO.

SEQUENCE TEXT	LABEL VALUE
RRIRARPPRLPRPRPRPHRYPRP	NO
RRIRGRPPRLPRPRPRPVMNPRP	YES
RRIRHRPPRLPRPRPRPWWIPRP	NO
RRIRTRPPRLPRPRPRPKWTPRP	NO
RRIRNRPPRLPRPRPRPWQNPRP	YES
RRIRMRPPRLPRPRPRPRSNPRP	YES
RRIRNRPPRLPRPRPRPARCPRP	YES
RRIRMRPPRLPRPRPRPRNSPRP	NO
RRIRCRPPRLPRPRPRPVPRPRP	YES
RRIRKRPPRLPRPRPRPRFQPRP	NO
RRIRCRPPRLPRPRPRPVLMPRP	NO
RRIRRRPPRLPRPRPRPSSAPRP	YES
RRIRRRPPRLPRPRPRPWPYPRP	YES
RRIRMRPPRLPRPRPRPASNPRP	YES
RRIRMRPPRLPRPRPRPAMMPRP	YES
RRIRLRPPRLPRPRPRPNVHPRP	NO
RRIRHRPPRLPRPRPRPLLYPRP	NO
RRIRQRPPRLPRPRPRPWAEPRP	NO
RRIRVRPPRLPRPRPRPGSLPRP	NO
RRIRSRPPRLPRPRPRPIREPRP	NO
RRIRTRPPRLPRPRPRPWKPPRP	NO
RRIRHRPPRLPRPRPRPWDQPRP	YES
RRIRERPPRLPRPRPRPQDMPRP	NO
RRIRWRPPRLPRPRPRPLSGPRP	YES
RRIRNRPPRLPRPRPRPSVHPRP	NO

---

# Test system: Escherichia coli TOP10
# PROCEDURE TEXT: shrunken log2 fold change of peptide-encoding DNA abundance (4.5 h post-induction vs induction); higher = less antimicrobial activity (less host growth inhibition)
# CONDITION LABEL: time post-induction: 4.5 h; library: site-saturation at positions 5, 18, 19, 20
READOUT LABEL: shrunken log2 fold change

SEQUENCE TEXT	RECORDED RESULT
RRIRWRPPRLPRPRPRPEKIPRP	2.76
RRIRQRPPRLPRPRPRPQNMPRP	-0.506
RRIRRRPPRLPRPRPRPVVLPRP	-0.0732
RRIRDRPPRLPRPRPRPFDFPRP	0.122
RRIRNRPPRLPRPRPRPHIMPRP	-0.122
RRIRSRPPRLPRPRPRPRTGPRP	0.185
RRIRSRPPRLPRPRPRPQDPPRP	0.122
RRIRRRPPRLPRPRPRPGRAPRP	0.648
RRIRNRPPRLPRPRPRPKQGPRP	0.0554
RRIRDRPPRLPRPRPRPDTPPRP	0.0945

---

Reported values of shrunken log2 fold change for individual entries
# System: Escherichia coli TOP10;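 also: peptides expressed intracellularly from a pBAD plasmid library in pooled LB shake-flask culture, induced with 0.3% L-arabinose, DNA abundance read by NGS, three biological replicates, DESeq2 with apeglm shrinkage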
# PROCEDURE TEXT: shrunken log2 fold change of peptide-encoding DNA abundance (4.5 h post-induction vs induction); higher = less antimicrobial activity (less host growth inhibition)
# CONDITION LABEL: time post-induction: 4.5 h; library: site-saturation at positions 5, 18, 19, 20
READOUT LABEL: shrunken log2 fold change

SEQUENCE TEXT	ASSAYED SYSTEM	READOUT LABEL	RECORDED RESULT
RRIRMRPPRLPRPRPRPMKSPRP	Escherichia coli TOP10	shrunken log2 fold change	0.0897
RRIRNRPPRLPRPRPRPVTYPRP	Escherichia coli TOP10	shrunken log2 fold change	-0.168
RRIRNRPPRLPRPRPRPKGSPRP	Escherichia coli TOP10	shrunken log2 fold change	-0.0293
RRIRCRPPRLPRPRPRPLFKPRP	Escherichia coli TOP10	shrunken log2 fold change	-0.475
RRIRSRPPRLPRPRPRPPKTPRP	Escherichia coli TOP10	shrunken log2 fold change	-0.0288
RRIRHRPPRLPRPRPRPYLFPRP	Escherichia coli TOP10	shrunken log2 fold change	-0.523
RRIRWRPPRLPRPRPRPISAPRP	Escherichia coli TOP10	shrunken log2 fold change	-0.0163
RRIRYRPPRLPRPRPRPYRDPRP	Escherichia coli TOP10	shrunken log2 fold change	-0.0114
RRIRGRPPRLPRPRPRPFKTPRP	Escherichia coli TOP10	shrunken log2 fold change	-0.341
RRIRIRPPRLPRPRPRPSMTPRP	Escherichia coli TOP10	shrunken log2 fold change	-0.43
RRIRSRPPRLPRPRPRPEMQPRP	Escherichia coli TOP10	shrunken log2 fold change	0.0419
RRIRYRPPRLPRPRPRPHFHPRP	Escherichia coli TOP10	shrunken log2 fold change	-0.489
RRIRERPPRLPRPRPRPRFYPRP	Escherichia coli TOP10	shrunken log2 fold change	-0.115
RRIRSRPPRLPRPRPRPFMLPRP	Escherichia coli TOP10	shrunken log2 fold change	-0.411
RRIRMRPPRLPRPRPRPNVSPRP	Escherichia coli TOP10	shrunken log2 fold change	0.141
RRIRARPPRLPRPRPRPMYRPRP	Escherichia coli TOP10	shrunken log2 fold change	-0.0452
RRIRIRPPRLPRPRPRPYNYPRP	Escherichia coli TOP10	shrunken log2 fold change	-0.65
RRIRLRPPRLPRPRPRPPAQPRP	Escherichia coli TOP10	shrunken log2 fold change	0.888
RRIRHRPPRLPRPRPRPLEDPRP	Escherichia coli TOP10	shrunken log2 fold change	0.0039
RRIRPRPPRLPRPRPRPYINPRP	Escherichia coli TOP10	shrunken log2 fold change	-0.739
RRIRLRPPRLPRPRPRPMYLPRP	Escherichia coli TOP10	shrunken log2 fold change	0.0092
RRIRKRPPRLPRPRPRPYMYPRP	Escherichia coli TOP10	shrunken log2 fold change	-0.445
RRIRTRPPRLPRPRPRPREGPRP	Escherichia coli TOP10	shrunken log2 fold change	0.41
RRIRSRPPRLPRPRPRPIQEPRP	Escherichia coli TOP10	shrunken log2 fold change	0.000527
RRIRMRPPRLPRPRPRPSCWPRP	Escherichia coli TOP10	shrunken log2 fold change	0.594
RRIRFRPPRLPRPRPRPLHQPRP	Escherichia coli TOP10	shrunken log2 fold change	-0.37
RRIRVRPPRLPRPRPRPLALPRP	Escherichia coli TOP10	shrunken log2 fold change	-0.181
RRIRQRPPRLPRPRPRPSACPRP	Escherichia coli TOP10	shrunken log2 fold change	0.42
RRIRDRPPRLPRPRPRPRWFPRP	Escherichia coli TOP10	shrunken log2 fold change	-0.0867
RRIRSRPPRLPRPRPRPLTRPRP	Escherichia coli TOP10	shrunken log2 fold change	0.0286
RRIRNRPPRLPRPRPRPGPIPRP	Escherichia coli TOP10	shrunken log2 fold change	0.058
RRIRERPPRLPRPRPRPHVVPRP	Escherichia coli TOP10	shrunken log2 fold change	-0.162
RRIRVRPPRLPRPRPRPSRNPRP	Escherichia coli TOP10	shrunken log2 fold change	-0.0696
RRIRWRPPRLPRPRPRPETSPRP	Escherichia coli TOP10	shrunken log2 fold change	0.7
RRIRWRPPRLPRPRPRPQYRPRP	Escherichia coli TOP10	shrunken log2 fold change	0.00862
RRIRIRPPRLPRPRPRPEFEPRP	Escherichia coli TOP10	shrunken log2 fold change	-0.0399
RRIRVRPPRLPRPRPRPAHIPRP	Escherichia coli TOP10	shrunken log2 fold change	-0.0203
RRIRQRPPRLPRPRPRPAQSPRP	Escherichia coli TOP10	shrunken log2 fold change	0.29
RRIRSRPPRLPRPRPRPSRNPRP	Escherichia coli TOP10	shrunken log2 fold change	-0.129
RRIRYRPPRLPRPRPRPIGCPRP	Escherichia coli TOP10	shrunken log2 fold change	0.225
RRIRCRPPRLPRPRPRPISWPRP	Escherichia coli TOP10	shrunken log2 fold change	-0.105
RRIRDRPPRLPRPRPRPWPPPRP	Escherichia coli TOP10	shrunken log2 fold change	0.32
RRIRNRPPRLPRPRPRPAVRPRP	Escherichia coli TOP10	shrunken log2 fold change	0.2
RRIRDRPPRLPRPRPRPAGVPRP	Escherichia coli TOP10	shrunken log2 fold change	0.25
RRIRARPPRLPRPRPRPSQVPRP	Escherichia coli TOP10	shrunken log2 fold change	0.0429
RRIRRRPPRLPRPRPRPRDLPRP	Escherichia coli TOP10	shrunken log2 fold change	0.427
RRIRCRPPRLPRPRPRPSVGPRP	Escherichia coli TOP10	shrunken log2 fold change	0.0128
RRIRDRPPRLPRPRPRPLKVPRP	Escherichia coli TOP10	shrunken log2 fold change	-0.0261
RRIRLRPPRLPRPRPRPMCIPRP	Escherichia coli TOP10	shrunken log2 fold change	-0.125
RRIRNRPPRLPRPRPRPMVHPRP	Escherichia coli TOP10	shrunken log2 fold change	-0.00783
RRIRGRPPRLPRPRPRPTMRPRP	Escherichia coli TOP10	shrunken log2 fold change	1.44
RRIRRRPPRLPRPRPRPPWWPRP	Escherichia coli TOP10	shrunken log2 fold change	0.862
RRIRRRPPRLPRPRPRPSANPRP	Escherichia coli TOP10	shrunken log2 fold change	0.326
RRIRARPPRLPRPRPRPKAFPRP	Escherichia coli TOP10	shrunken log2 fold change	0.269
RRIRQRPPRLPRPRPRPPLIPRP	Escherichia coli TOP10	shrunken log2 fold change	0.0445
RRIRCRPPRLPRPRPRPWAIPRP	Escherichia coli TOP10	shrunken log2 fold change	-0.0169
RRIRIRPPRLPRPRPRPQYGPRP	Escherichia coli TOP10	shrunken log2 fold change	0.0914
RRIRSRPPRLPRPRPRPRVHPRP	Escherichia coli TOP10	shrunken log2 fold change	0.109
RRIRIRPPRLPRPRPRPATFPRP	Escherichia coli TOP10	shrunken log2 fold change	-0.658
RRIRWRPPRLPRPRPRPQCDPRP	Escherichia coli TOP10	shrunken log2 fold change	0.462
RRIRIRPPRLPRPRPRPAMIPRP	Escherichia coli TOP10	shrunken log2 fold change	0.0156
RRIRFRPPRLPRPRPRPHKDPRP	Escherichia coli TOP10	shrunken log2 fold change	-0.709
